measured.on: GLP-1 receptor (UniProt P43220 24-463, limits assumed)
protocol.description: cell-based or functional assay
Numbered stars: 1 amine (or outer) side, 2 acyl side, 3 side chain; on linkers, the order of the positions; unused ones are H or OH. Square brackets hold non-standard residues; d marks the D form. Side chains are listed from the residue outwards. Ends that are not written are not given here. * marks the point of attachment. 40K‑TE PEG = 40 kDa PEG covalently bound via thioether, formed by reaction of the free thiol of the peptide (Cys side chain) with an iodoacetic-functionalized PEG; γGlu = O=C(O)[C@H](CCC(=O)[*:2])N[*:1]; Palmitoyl = CCCCCCCCCCCCCCCC(=O)*; Aib = CC(C)(N)C(=O)O
measure.name: EC50 (nM) at GLP-1 receptor
// units = nM; emit number, no label

Here's what some known entries look like.
H[Aib]QGTFTSDK([γGlu-Palmitoyl])SKYLD[Aib]RAAQDFVQWLMKTK[dE]-OH [peptide of SEQ ID NO: 60] | 0.033
H[Aib]QGTFTSDYSKYLD[Aib]KRAKEFVQWLLDTC(40K‑TE PEG)-NH2 [peptide of SEQ ID NO: 40] | 0.653
H[Aib]QGTFTSDYSKYLDEKRA[Aib]EFVC(40K‑TE PEG)WLLDGGPSSGAPPPS-NH2 [peptide of SEQ ID NO: 47] | 0.052
H[Aib]QGTFTSDYSKYLD[Aib]KRA[Aib]EFVC(40K‑TE PEG)WLLDT-NH2 [peptide of SEQ ID NO: 38] | 0.31
H[dS]QGTFTSDK([γGlu-adamantylacetyl])SKYLDERAAQDFVQWLLDT-NH2 [peptide of SEQ ID NO: 48] | 0.039
H[Aib]QGTFTSDYSKYLD[Aib]KRA[Aib]EFVC(40K‑TE PEG)WLLDGGPSSGAPPPS-NH2 [peptide of SEQ ID NO: 46] | 0.136

Next up:
What does the data say about its EC50 (nM) at GLP-1 receptor? Entry: H[Aib]QGTFTSDYSKYLDEKRA[Aib]EFVC(40K‑TE PEG)WLLDT-OH [peptide of SEQ ID NO: 45] 1.44
